# Test system: Salmonella typhimurium TA100
# Experimental Protocol: Mutagenicity (Ames test)
# Format: cell-based
# Reported Conditions: ½ MIC
Measured Endpoint: Mutagenicity index
Number only, no unit.

Asked: Return the recorded Mutagenicity index value; entry: CCCCCCCCCCCCN(C)CCC[N+](C)(C)C.COC(=O)[O-]
Given back: 0.94

Asked: Return the recorded Mutagenicity index value; entry: CCCCCCCCCCCCCCN(C)CCC[N+](C)(C)C.COC(=O)[O-]
Given back: 1.10

Asked: Return the recorded Mutagenicity index value; entry: CCCCCCCCCCCCCCCC(=O)N(C)CCC[N+](C)(C)C.[Br-]
Given back: 1.06

Asked: Return the recorded Mutagenicity index value; entry: CCCCCCCCCCCCCC(=O)N(C)CCC[N+](C)(C)C.[Br-]
Given back: 1.16

Asked: Return the recorded Mutagenicity index value; entry: CCCCCCCCCCCCCCCCN(C)CCC[N+](C)(C)C.COC(=O)[O-]
Given back: 1.09

* * *

# Tested on: Salmonella typhimurium TA98
# Experimental Protocol: Mutagenicity (Ames test)
# Format: cell-based
# Reported Conditions: ¼ MIC
Mutagenicity index by entry:

Here is how some compounds turned out for Mutagenicity index.
CC(=O)[O-].CCCCCCCCCCCC(=O)N(C)CCC[N+](C)(C)C = 0.96
CC(=O)[O-].CCCCCCCCCCCCCC(=O)N(C)CCC[N+](C)(C)C = 0.96
CCCCCCCCCCCC(=O)N(C)CCC[N+](C)(C)C.[Br-] = 0.78
CCCCCCCCCCCCN(C)CCC[N+](C)(C)C.COC(=O)[O-] = 0.75
CCCCCCCCCCCCCCCCN(C)CCC[N+](C)(C)C.COC(=O)[O-] = 0.39

Asked: Return the recorded Mutagenicity index value; entry: CCCCCCCCCCCCCCCC(=O)N(C)CCC[N+](C)(C)C.[Br-]
Given back: 2.76

Asked: Return the recorded Mutagenicity index value; entry: CC(=O)[O-].CCCCCCCCCCCCCCCC(=O)N(C)CCC[N+](C)(C)C
Given back: 0.93

Asked: Return the recorded Mutagenicity index value; entry: CCCCCCCCCCCCCCN(C)CCC[N+](C)(C)C.COC(=O)[O-]
Given back: 0.57

Asked: Return the recorded Mutagenicity index value; entry: CCCCCCCCCCCCCC(=O)N(C)CCC[N+](C)(C)C.[Br-]
Given back: 0.73

* * *

# System: Salmonella typhimurium TA100
# Experimental Protocol: Mutagenicity (Ames test)
# Type: cell-based
# Reported Conditions: ½ MIC
Measured Endpoint: Mutagenicity index

Here is how some compounds turned out for Mutagenicity index.
CC(=O)[O-].CCCCCCCCCCCCCC(=O)N(C)CCC[N+](C)(C)C = 0.95
CC(=O)[O-].CCCCCCCCCCCC(=O)N(C)CCC[N+](C)(C)C = 1.08
CCCCCCCCCCCC(=O)N(C)CCC[N+](C)(C)C.[Br-] = 1.15

Asked: Return the recorded Mutagenicity index value; entry: CC(=O)[O-].CCCCCCCCCCCCCCCC(=O)N(C)CCC[N+](C)(C)C
Given back: 0.66
